target: SRPK1 (human); assay: IMAP-FP; details: compound 0.2 µM
Readout kind: inhibition (%)
The reply should contain only the number, in %.

inhibition for SRPK1 (human) with input Cc1ccc(Nc2nccc(N(C)c3ccc4c(C)n(C)nc4c3)n2)cc1S(N)(=O)=O equals -3.6

inhibition for SRPK1 (human) with input COc1cc2c(Oc3ccc4[nH]c(C)cc4c3F)ncnc2cc1OCCCN1CCCC1 equals -5.6

inhibition for SRPK1 (human) with input CCN(CC)CCNC(=O)c1c(C)[nH]c(/C=C2\C(=O)Nc3ccc(F)cc32)c1C equals -0.7

inhibition for SRPK1 (human) with input CNC(=O)c1cc(Oc2ccc(NC(=O)Nc3ccc(Cl)c(C(F)(F)F)c3)cc2)ccn1 equals 0.2
